- target.or.system: UniProt H9XTU5
- Sequence (H9XTU5 entry or part of it): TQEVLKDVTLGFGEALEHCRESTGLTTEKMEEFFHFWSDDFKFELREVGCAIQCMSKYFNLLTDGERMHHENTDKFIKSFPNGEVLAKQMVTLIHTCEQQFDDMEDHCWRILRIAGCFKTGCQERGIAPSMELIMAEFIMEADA
- test.summary: Fluorescence competitive binding assay with probe 1-NPN, rGmolGOBP1
- condition: protein and 1-NPN 2 μM, pH 7.4; calculated from IC50; read-out: GmolGOBP1 Ki
endpoint.name: pKi
One number for each entry, as −log10 of the molar value.

* CC(=O)OCCC(C)C [Isoamyl acetate] | 4.57

# per-item lookup of pKi; items listed below
1. CCCCCCC(=O)OCC [Ethyl heptanoate]
2. CCCCC(CC)CO (stereo not shown)
3. CCC/C=C/CCCCCCCOC(C)=O [E8-12:AC, (E)-8-dodecenyl acetate]
4. CCCCCCCCCCCCCC
5. CCCC(=O)OCC [Ethyl butyrate]
6. C=C/C(C)=C/CCC(=C)C

Output line:
1: 4.46; 2: 4.61; 3: 5.05; 4: 5.07; 5: 4.48; 6: 4.91
